- Tested on: Escherichia coli TOP10
- assay.protocol: shrunken log2 fold change of peptide-encoding DNA abundance (4.5 h post-induction vs induction); higher = less antimicrobial activity (less host growth inhibition)
- conditions.used: time post-induction: 4.5 h; library: site-saturation at positions 5, 18, 19, 20
Field: shrunken log2 fold change. Provide a value for each of the sequences that follow.
Lab note: record just the number, no unit beside it.

Inquiry: # assay system Escherichia coli TOP10: give shrunken log2 fold change of RRIRARPPRLPRPRPRPEMRPRP
Reply text: 1.19

Inquiry: # assay system Escherichia coli TOP10: give shrunken log2 fold change of RRIRRRPPRLPRPRPRPWFHPRP
Reply text: 0.0067

Inquiry: # assay system Escherichia coli TOP10: give shrunken log2 fold change of RRIRIRPPRLPRPRPRPRLQPRP
Reply text: 0.123

Inquiry: # assay system Escherichia coli TOP10: give shrunken log2 fold change of RRIRPRPPRLPRPRPRPSTYPRP
Reply text: -0.415

Inquiry: # assay system Escherichia coli TOP10: give shrunken log2 fold change of RRIRVRPPRLPRPRPRPGMMPRP
Reply text: 0.135

Inquiry: # assay system Escherichia coli TOP10: give shrunken log2 fold change of RRIRGRPPRLPRPRPRPIFMPRP
Reply text: 0.283

Inquiry: # assay system Escherichia coli TOP10: give shrunken log2 fold change of RRIRKRPPRLPRPRPRPNGRPRP
Reply text: 0.131

Inquiry: # assay system Escherichia coli TOP10: give shrunken log2 fold change of RRIRPRPPRLPRPRPRPMAAPRP
Reply text: 0.208

Inquiry: # assay system Escherichia coli TOP10: give shrunken log2 fold change of RRIRDRPPRLPRPRPRPISEPRP
Reply text: -0.0429

Inquiry: # assay system Escherichia coli TOP10: give shrunken log2 fold change of RRIRQRPPRLPRPRPRPVEPPRP
Reply text: 0.117

Inquiry: # assay system Escherichia coli TOP10: give shrunken log2 fold change of RRIRCRPPRLPRPRPRPESDPRP
Reply text: 0.242

Inquiry: # assay system Escherichia coli TOP10: give shrunken log2 fold change of RRIRERPPRLPRPRPRPSSQPRP
Reply text: 0.123

Inquiry: # assay system Escherichia coli TOP10: give shrunken log2 fold change of RRIRWRPPRLPRPRPRPNHRPRP
Reply text: -0.0538

Inquiry: # assay system Escherichia coli TOP10: give shrunken log2 fold change of RRIRARPPRLPRPRPRPHTYPRP
Reply text: -0.126

Inquiry: # assay system Escherichia coli TOP10: give shrunken log2 fold change of RRIRCRPPRLPRPRPRPWEEPRP;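 also: peptides expressed intracellularly from a pBAD plasmid library in pooled LB shake-flask culture, induced with 0.3% L-arabinose, DNA abundance read by NGS, three biological replicates, DESeq2 with apeglm shrinkage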
Reply text: 0.0492
